Numbers sourced from PubChem BioAssay (NCI).

Tested on: HOP-92 NSCLC
assay_summary: NCI tumour cell line growth inhibition, 48 h
Each item that follows carries a reported TGI.
Report as a plain number; the unit µM is understood.

compound	TGI / µM
C[CH2][Sn]([CH2]C)([O]C(=O)c1ccccc1F)[O]C(=O)c1ccccc1F	37.7
C#Cc1cc(-c2nc3ccccc3s2)ccc1N	44.7
O=C1/C(=C\c2cccc(Oc3ccccc3)c2)SC(c2ccccc2)N1c1ccccc1Cl (stereo not given)	57.5

Return the recorded TGI value; entry: CNC(=O)c1ccccc1Nc1cc(Nc2ccc(N3CCOCC3)cc2OC)ncc1C(F)(F)F 0.172

###

Each item that follows carries a reported TGI.
System: MOLT-4 leukemia
assay_summary: NCI tumour cell line growth inhibition, 48 h
Report as a plain number; the unit µM is understood.

Worked cases, answers included:
molecule	metric_name	unit_name	readout_number
CN[C@@H](C)C(=O)N[C@H]1CCS[C@H]2CC(C)(C)[C@@H](C(=O)N[C@H]3c4ccccc4C[C@H]3OCC#CC#CCO[C@@H]3Cc4ccccc4[C@@H]3NC(=O)[C@H]3N4C(=O)[C@@H](NC(=O)[C@H](C)NC)CCS[C@H]4CC3(C)C)N2C1=O	TGI	µM	22.4
CCC(=O)Nc1ccc(NCC(=O)Nc2ccc(Cl)cc2)cc1	TGI	µM	98.2
C[C@]12CC[C@@H]3c4ccc(O)cc4CC[C@H]3[C@@H]1CC[C@@H]2NS(=O)(=O)c1ccc(Cl)cc1	TGI	µM	24.4

// switching to the query molecule
Return the recorded TGI value; entry: CC(C)(C)COC1C2(OCCO2)C2CCC1(C)C2(C)C (stereo not drawn) 39.7
